Every entry's value here was drawn from patent US12459899B2.

List of IC50 values.
- testSystem: PARP-1 (poly[ADP-ribose] polymerase 1) enzyme (Homo sapiens (Human), UniProt P09874)
- Sequence (P09874 whole entry): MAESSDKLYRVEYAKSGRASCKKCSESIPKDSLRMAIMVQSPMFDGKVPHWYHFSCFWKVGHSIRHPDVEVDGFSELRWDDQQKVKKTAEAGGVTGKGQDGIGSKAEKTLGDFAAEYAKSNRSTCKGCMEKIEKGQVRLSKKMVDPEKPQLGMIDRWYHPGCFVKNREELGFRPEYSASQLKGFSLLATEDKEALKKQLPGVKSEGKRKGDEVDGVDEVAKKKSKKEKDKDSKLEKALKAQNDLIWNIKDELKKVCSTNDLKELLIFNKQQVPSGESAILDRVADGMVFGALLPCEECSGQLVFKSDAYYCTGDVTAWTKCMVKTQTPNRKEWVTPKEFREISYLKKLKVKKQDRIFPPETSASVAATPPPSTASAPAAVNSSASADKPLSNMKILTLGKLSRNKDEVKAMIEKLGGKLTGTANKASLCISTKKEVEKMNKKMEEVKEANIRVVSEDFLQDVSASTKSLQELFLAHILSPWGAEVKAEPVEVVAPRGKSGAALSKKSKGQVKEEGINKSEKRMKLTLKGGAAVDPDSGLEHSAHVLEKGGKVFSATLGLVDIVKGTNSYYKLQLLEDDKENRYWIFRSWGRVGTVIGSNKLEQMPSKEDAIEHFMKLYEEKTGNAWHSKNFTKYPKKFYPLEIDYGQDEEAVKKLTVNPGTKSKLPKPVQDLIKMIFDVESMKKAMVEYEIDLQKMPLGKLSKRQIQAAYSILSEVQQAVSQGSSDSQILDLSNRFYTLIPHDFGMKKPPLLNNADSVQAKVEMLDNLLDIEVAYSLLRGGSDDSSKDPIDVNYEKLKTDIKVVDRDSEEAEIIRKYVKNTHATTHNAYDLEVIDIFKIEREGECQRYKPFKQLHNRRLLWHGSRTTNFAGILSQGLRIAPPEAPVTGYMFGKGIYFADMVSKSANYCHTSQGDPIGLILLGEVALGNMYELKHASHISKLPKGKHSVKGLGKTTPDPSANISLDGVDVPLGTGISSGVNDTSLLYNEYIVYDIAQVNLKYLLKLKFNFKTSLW
- testMethodNotes: PARP-1 (poly[ADP-ribose] polymerase 1) enzyme inhibitory ability, Trevigen assay kit
- Type: biochemical
- conditionsUsed: PARP-1 enzyme activity
Answer with a number only, understood to be in nM.

Below are worked cases with known answers.
moleculesmiles=N#Cc1ccc(N2CCN(C(=O)CCc3cc4cccc(F)c4c(=O)[nH]3)CC2)cc1 value=1.9
moleculesmiles=O=c1[nH]c(CCCN2CC=C(c3ccc(F)cc3)CC2)cc2ccc(F)cc12 value=1.32
moleculesmiles=N#Cc1ccc(N2CCN(CCCc3cc4cccc(F)c4c(=O)[nH]3)CC2)cc1 value=2.3
moleculesmiles=Cc1cc(F)cc2c(=O)[nH]c(CCC(=O)N3CCN(c4ccc(C#N)nc4)CC3)cc12 value=4.05

Moving on to another compound below.
For this compound ( Cc1ccc(F)c2c(=O)[nH]c(CCCN3CCN(c4ccc(C#N)cn4)CC3)cc12 ), measured IC50 is 1.2
